experiment: Nrf2 qHTS screen for inhibitors: Validation (AID 493153); conditions: A549 ARE-Fluc reporter, 18-24 h; measured here: cytotoxicity max response
Records with an inconclusive call do not appear.
measurement-kind: viability change (%)
Field: numeric (%). Do not append units.

# viability change of CO/S(=N\S(=O)(=O)c1ccc(Cl)cc1)c1ccc([N+](=O)[O-])cc1 (stereo not given) = -1.86

# viability change of CC(C)(C)c1ccc(S(=O)(=O)/C=C/C#N)cc1 = 4.47

# viability change of NC(=S)c1ccc[n+]([C@@H]2O[C@@H](COP(=O)([O-])OP(=O)(O)OC[C@H]3O[C@@H](n4cnc5c(N)ncnc54)[C@H](OP(=O)(O)O)[C@@H]3O)C(O)C2O)c1 (stereo not given in full) = -6.67

# viability change of NC(=S)NCCC[C@H](N)C(=O)O = 2.08

# viability change of CN(C)C(N)=NCCC[C@H](N)C(=O)O = -5.79

# viability change of C=CC(N)CCC(=O)O (stereo not given) = 4.81

# viability change of C[N+](C)(C)CCOP(=O)(O)OP(=O)([O-])OC[C@H]1O[C@@H](n2ccc(N)nc2=O)[C@H](O)[C@@H]1O = 2.92

# viability change of CCCCC/C=C\CC(O)/C=C/c1cccc(CC(O)CCCCO)n1 (stereo not given) = -0.641

# viability change of CCCCCCCC/C=C\CCCCCCCC(=O)NCCO = 1.03

# viability change of NC[C@@H]1O[C@H](C23CC4CC(CC(C4)C2)C3)Cc2c1ccc(O)c2O = 3.16

# viability change of Cc1cc(NC2CCCCC2)nc(-n2nc(C)cc2C)n1 = -6.43

# viability change of NCCCS(=O)(=O)O = -7.16

# viability change of N#C/C(=C\c1ccc(O)c(O)c1)C(=O)NCCCc1ccccc1 = -10.3

# viability change of O=C(O)c1cc(=O)c2ccccc2[nH]1 = -7.12

# viability change of Oc1cc2c(cc1O)CN(C(=S)NCCc1ccc(Cl)cc1)CCC2 = -1.93

# viability change of CN1CCc2cc(O)c(O)cc2C(c2ccccc2)C1 (stereo not given) = -7.53

# viability change of NC(=O)C1=CN(C2OC(COP(=O)(O)OP(=O)(O)OC[C@H]3O[C@@H](n4cnc5c(N)ncnc54)[C@H](OP(=O)(O)O)[C@@H]3O)C(O)C2O)C=CC1 (stereo not given in full) = 5.72

# viability change of CCCn1c(=O)c2[nH]c(-c3ccc(OCC(=O)NCCN)cc3)nc2n(CCC)c1=O = 10.5

# viability change of C=C[C@@H]1CN2CC[C@@H]1C[C@H]2[C@H](O)c1ccnc2ccc(OC)cc12 = -4.66

# viability change of OC[C@H]1O[C@@H](n2cnc3c(NC4CCCCC4)ncnc32)[C@H](O)[C@@H]1O = 2.64

# viability change of O=C(/C=C/c1ccc(O)cc1)c1ccc(O)cc1O = -0.936

# viability change of CCCN(CC1CC1)c1nc(C)nc(Nc2c(Cl)cc(Cl)cc2Cl)c1Cl = 7.51

# viability change of Nc1nc(Cl)nc2c1ncn2[C@@H]1O[C@H](COP(=O)(O)OP(=O)(O)OP(=O)(O)O)[C@@H](O)[C@H]1O = 3.12

# viability change of OC[C@H]1O[C@@H](n2cnc3c(NC4CCCC4)ncnc32)[C@H](O)[C@@H]1O = -2.89

# viability change of CCCCCCCCCCCCCCCCCCNC(=O)OCC(COP(=O)([O-])OCC[n+]1ccsc1)OC (stereo not given) = 1.65

These measurements were taken from PubChem BioAssay (NCATS).
